Give T/C for every item shown.
System: L1210 leukemia ip in BDF1 mice, survival T/C
Assay: NCI In Vivo Anticancer Drug Screen. Data for tumor model L1210 Leukemia (intraperitoneal) in B6D2F1 (BDF1) mice
Conditions: endpoint: mean survival time; dose: 100.0 mg/kg/injection; schedule: Q04DX002 (ip); vehicle: saline with Tween-80; higher = longer survival
Toxic doses and inconclusive results are not listed.

Supply measured T/C of `O=C([O][Bi]([c]1ccccc1)[c]1ccccc1)C(F)(F)F` in your reply.
95 % of control

Supply measured T/C of CC([NH-])C(=O)O.CC([NH-])C(=O)O.CC([NH-])C(=O)O.[Co+3] (stereo unspecified) in your reply.
115 % of control

Supply measured T/C of `O=C(NO)C(=O)NO` in your reply.
90 % of control

Supply measured T/C of NC(C(=O)O)C(N)(CC(=O)O)C(=O)O (stereo unspecified) in your reply.
94 % of control

Supply measured T/C of `COC(=O)c1ccccc1NC1=NCCO1` in your reply.
104 % of control

Supply measured T/C of `Cc1cccc(NC(=S)NC(=O)c2cccc([N+](=O)[O-])c2)c1C` in your reply.
88 % of control

----------
Tested on: L1210 leukemia ip in BDF1 mice, survival T/C
Assay: NCI In Vivo Anticancer Drug Screen. Data for tumor model L1210 Leukemia (intraperitoneal) in B6D2F1 (BDF1) mice
Settings: endpoint: mean survival time; dose: 200.0 mg/kg/injection; schedule: Q04DX003 (ip); vehicle: carboxymethylcellulose (CMC); higher = longer survival
Procedure: The antitumor activity of compounds was measured in mice bearing transplantable tumors. Survival or tumor size were measured and the results are expressed as the measurement made in the treated group (T) divided by the measurement made in the vehicle treated control group (C). The tumor model used in this assay is L1210 Leukemia (intraperitoneal) in B6D2F1 (BDF1) mice
Toxic doses and inconclusive results are not listed.
Give T/C for every item shown.

For L1210 leukemia ip in BDF1 mice, survival T/C, give the measured T/C of the entry `CCCCCNC(=O)CCCC`
97 % of control

For L1210 leukemia ip in BDF1 mice, survival T/C, give the measured T/C of the entry `COc1cccc2c1CC/C(=C\c1cccnc1)C2=O`
102 % of control

For L1210 leukemia ip in BDF1 mice, survival T/C, give the measured T/C of the entry `O=C(CCl)N(O)c1ccccc1OCc1ccccc1`
102 % of control

For L1210 leukemia ip in BDF1 mice, survival T/C, give the measured T/C of the entry `CS(=O)(=O)c1nsc(S(C)(=O)=O)c1C#N`
97 % of control

For L1210 leukemia ip in BDF1 mice, survival T/C, give the measured T/C of the entry `CCCCCN(CCCCC)C(=S)[S-].CCCCCN(CCCCC)C(=S)[S-].[Zn]`
100 % of control

For L1210 leukemia ip in BDF1 mice, survival T/C, give the measured T/C of the entry `N#CCCc1c(-c2ccccc2)nc(N)[nH]c1=O`
92 % of control

----------
Tested on: L1210 leukemia ip in BDF1 mice, survival T/C
Assay: NCI In Vivo Anticancer Drug Screen. Data for tumor model L1210 Leukemia (intraperitoneal) in B6D2F1 (BDF1) mice
Settings: endpoint: mean survival time; dose: 400.0 mg/kg/injection; schedule: Q04DX003 (ip); vehicle: acetone; higher = longer survival
Inconclusive results and toxic doses are left out.
Give T/C for every item shown.

For L1210 leukemia ip in BDF1 mice, survival T/C, give the measured T/C of the entry `Clc1cc(I)cc(Cl)c1Cl`
91 % of control

For L1210 leukemia ip in BDF1 mice, survival T/C, give the measured T/C of the entry CC1OCC(C)C(C)(C)O1 (centres undefined)
103 % of control

For L1210 leukemia ip in BDF1 mice, survival T/C, give the measured T/C of the entry CCN(CC)C(=O)C(Br)C(Br)C(=O)N(CC)CC (centres undefined)
92 % of control

For L1210 leukemia ip in BDF1 mice, survival T/C, give the measured T/C of the entry COC(=O)CCC(NC(=O)C1CCN(C(=O)OCc2ccccc2)CC1)C(=O)OC (centres undefined)
98 % of control

Origin of measurements: PubChem BioAssay AID248
